Experimental target: His-tagged human MPP1 construct (Aa 1-533) (Homo sapiens, UniProt Q96Q89)
Construct: a His-tagged human MPP1 construct (Aa 1-533); His
Sequence (Q96Q89 1-533): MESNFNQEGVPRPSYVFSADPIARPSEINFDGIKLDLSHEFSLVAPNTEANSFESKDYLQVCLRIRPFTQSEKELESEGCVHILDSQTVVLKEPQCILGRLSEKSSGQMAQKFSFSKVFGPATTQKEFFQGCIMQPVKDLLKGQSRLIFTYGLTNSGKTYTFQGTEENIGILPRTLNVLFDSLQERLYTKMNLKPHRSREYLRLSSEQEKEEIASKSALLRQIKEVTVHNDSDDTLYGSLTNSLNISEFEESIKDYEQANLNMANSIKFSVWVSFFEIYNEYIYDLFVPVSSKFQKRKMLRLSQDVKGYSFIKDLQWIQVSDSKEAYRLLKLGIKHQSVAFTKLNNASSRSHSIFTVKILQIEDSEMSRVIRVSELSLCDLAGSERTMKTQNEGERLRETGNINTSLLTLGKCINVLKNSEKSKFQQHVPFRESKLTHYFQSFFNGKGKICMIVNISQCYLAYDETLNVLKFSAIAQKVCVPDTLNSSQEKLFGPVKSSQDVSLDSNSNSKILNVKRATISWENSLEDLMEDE
Experimental details: Malachite-green based in vitro microtubule-stimulated ATPase assay (potency study)
Condition label: microtubule-stimulated ATPase activity, DMSO as solvent control, Fig. 1
Property: IC50

Recorded IC50 for FC(F)(F)c1cc(Cl)c2ncc(-c3ccc(Cl)c(Cl)c3)nc2c1 , please?
~40 µM
